// provenance: patent US8859580B2

molecular target: 11β-HSD1 (Homo sapiens); construct: detecting cortisol generated from cortisterone by human liver microsomes; from tissue; host or cells: human liver microsomes; assay: In vitro inhibition of 11β-HSD1, HTRF detection of cortisol generated from cortisone by human liver microsomes; type: biochemical; settings: 11β-HSD IC50 (nM), 1 hour at 37° C., pH 6.0, NADPH 200 μM, cortisone 80 nM, inhibition relative to carbenoxolone signal
Sequence (P28845 whole entry): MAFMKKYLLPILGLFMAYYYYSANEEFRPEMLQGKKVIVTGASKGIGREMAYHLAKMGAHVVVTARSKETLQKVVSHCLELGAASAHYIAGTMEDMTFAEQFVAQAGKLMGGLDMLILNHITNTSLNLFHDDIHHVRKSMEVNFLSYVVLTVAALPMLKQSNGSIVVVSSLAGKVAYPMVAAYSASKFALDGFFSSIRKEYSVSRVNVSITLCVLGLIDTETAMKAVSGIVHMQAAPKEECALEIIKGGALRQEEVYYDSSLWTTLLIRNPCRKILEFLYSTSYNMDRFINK
I'd appreciate it if you could supply IC50 values for the items below.
Write the numeric value and follow it with the unit.

Answered examples (2):
molecule	result
CC12CCN(C(=O)c3ccc4nc[nH]c4c3)C(Cc3ccc(F)cc31)C2(C)C (stereo not shown)	362 nM
C[C@@H]1[C@H]2Cc3ccc(-c4ccncc4)cc3[C@]1(C)CCN2C(=O)c1ccc2nc[nH]c2c1	66 nM

# batch: return IC50 for each of the 4 molecules below
1. C[C@@H]1[C@@H]2Cc3ccc(O)cc3[C@@]1(C)CCN2C(=O)c1ccc2nc[nH]c2c1 [Example 246]
2. Cc1cc2c(cc1O)[C@@]1(C)CCN(C(=O)c3ccc4nc[nH]c4c3)[C@@H](C2)C1(C)C (stereo in doubt)
3. Cc1cc(C(=O)N2CC[C@@]3(C)c4cccc(O)c4C[C@@H]2C3(C)C)cc2nc[nH]c12
4. CC12CCN(C(=O)c3ccc4nc[nH]c4c3)C(Cc3ccc(Cl)cc31)C2(C)C (stereo not shown)

Reply:
1. 637 nM
2. 822 nM
3. 98 nM
4. 395 nM

Task item: Input CNS(=O)(=O)c1ccc2c(c1)[C@]1(C)CCN(C(=O)c3ccc4nc[nH]c4c3)[C@H](C2)C1(C)C , output reported IC50.
Reply: 66 nM

----------
target: 11β-HSD1 (Homo sapiens); construct: detecting cortisol generated from cortisterone by human liver microsomes; from tissue; host or cells: human liver microsomes; assay: In vitro inhibition of 11β-HSD1, HTRF detection of cortisol generated from cortisone by human liver microsomes; assay type: biochemical; details: 11β-HSD IC50 (nM), 1 hour at 37° C., pH 6.0, NADPH 200 μM, cortisone 80 nM, inhibition relative to carbenoxolone signal
measurement label: IC50

Here are 5 molecules together with their reported answers.
molecule	IC50
CC1(C)[C@H]2Cc3cc4oc([C@@H]5CCCO5)nc4cc3[C@]1(C)CCN2C(=O)c1ccc2nc[nH]c2c1	63 nM
CC12CCN(C(=O)c3ccc4nc[nH]c4c3)C(Cc3cc(CN)ccc31)C2(C)C (stereo not shown)	1690 nM
CC1CN(Cc2ccc(C(=O)N3CC[C@@]4(C)c5cccc(O)c5C[C@@H]3C4(C)C)cc2)CC(C)O1 (stereo partly shown)	1150 nM
CN(C)C(=O)c1ccc(C(=O)N2CC[C@@]3(C)c4cccc(O)c4C[C@@H]2C3(C)C)cc1	998 nM
CC1(C)C(=O)Nc2ccc(C(=O)N3CC[C@@]4(C)c5ccccc5C[C@@H]3C4(C)C)cc21	210 nM

# batch size: 2; output IC50 per entry
1. Cc1ccccc1C(=O)N1CC[C@@]2(C)c3cccc(O)c3C[C@@H]1C2(C)C
2. CC(O)c1ccc2c(c1)C[C@H]1N(C(=O)c3ccc4nc[nH]c4c3)CC[C@]2(C)C1(C)C (stereo partly shown)

Reply:
3100 nM
40 nM

----------
target: 11β-HSD1 (Homo sapiens); construct: detecting cortisol generated from cortisterone by human liver microsomes; from tissue; host or cells: human liver microsomes; test: In vitro inhibition of 11β-HSD1, HTRF detection of cortisol generated from cortisone by human liver microsomes; format: biochemical; details: 11β-HSD IC50 (nM), 1 hour at 37° C., pH 6.0, NADPH 200 μM, cortisone 80 nM, inhibition relative to carbenoxolone signal
Response field label takes 1 when IC50 is strictly below 100 nM and -1 in all other cases.

Task item: # check: IC50 < 100 nM for CC(=O)NCc1ccc2c(c1)CC1N(C(=O)c3ccc4nc[nH]c4c3)CCC2(C)C1(C)C (centres unmarked) [Example 178]
Reply: -1

Task item: Dear reviewer, please state whether CC1(C)[C@H]2Cc3c(O)cccc3[C@]1(C)CCN2C(=O)c1ccc2nc[nH]c2c1 [Example 4] has IC50 strictly beneath 100 nM.
Reply: 1

Task item: is_below(IC50, 100 nM) for CC1(C)[C@H]2Cc3c(O)cccc3[C@]1(C)CCN2C(=O)c1ccc(C#N)cc1 [Example 13] ?
Reply: -1

Task item: Does the reported IC50 of the following compound sit strictly below 100 nM? CC12CCN(C(=O)c3ccc4nc[nH]c4c3)C(Cc3cc(O)ccc31)C2(C)C (centres unmarked) [Example 59]
Reply: 1

Task item: Determine whether this compound shows IC50 lower than 100 nM (ties excluded): CC1(C)[C@H]2Cc3cc4oc(C5CC5)nc4cc3[C@]1(C)CCN2C(=O)c1ccc2nc[nH]c2c1 [Example 302]
Reply: 1
